Consider the following compounds and their measured activity coefficient readings.
assay: activity coefficient (dimensionless); of the first substance listed, at infinite dilution; xn = mol fraction of the nth substance listed; settings: 353.15 K; 101 kPa; Liquid; Chromatography; x1 = 0
Reply with the value as a number alone.

Past entries and their recorded results:
{"compound": "CO [methanol] + CCCCn1cc[n+](C)c1.COS(=O)(=O)[O-]", "activity coefficient": 0.38}
{"compound": "CCCO [propan-1-ol] + CCCCn1cc[n+](C)c1.COS(=O)(=O)[O-]", "activity coefficient": 0.82}

Query activity coefficient for CC(C)CO [2-methyl-1-propanol] + CCCCn1cc[n+](C)c1.F[P-](F)(F)(F)(F)F
3.23

Query activity coefficient for CCO [ethanol] + CCCCn1cc[n+](C)c1.F[P-](F)(F)(F)(F)F
1.85

Query activity coefficient for CCC(C)O (stereo not given) [butan-2-ol] + CCCCn1cc[n+](C)c1.F[P-](F)(F)(F)(F)F
2.87

Sourced from the NIST ThermoML archive (doi:10.1021/je800355e)
